The values you see were collected from ChEMBL document CHEMBL5131569.

Biological target: Glutamate NMDA receptor; GRIN1/GRIN2B (Homo sapiens, UniProt Q05586+Q13224)
Sequence (Q13224 whole entry, other chains not shown): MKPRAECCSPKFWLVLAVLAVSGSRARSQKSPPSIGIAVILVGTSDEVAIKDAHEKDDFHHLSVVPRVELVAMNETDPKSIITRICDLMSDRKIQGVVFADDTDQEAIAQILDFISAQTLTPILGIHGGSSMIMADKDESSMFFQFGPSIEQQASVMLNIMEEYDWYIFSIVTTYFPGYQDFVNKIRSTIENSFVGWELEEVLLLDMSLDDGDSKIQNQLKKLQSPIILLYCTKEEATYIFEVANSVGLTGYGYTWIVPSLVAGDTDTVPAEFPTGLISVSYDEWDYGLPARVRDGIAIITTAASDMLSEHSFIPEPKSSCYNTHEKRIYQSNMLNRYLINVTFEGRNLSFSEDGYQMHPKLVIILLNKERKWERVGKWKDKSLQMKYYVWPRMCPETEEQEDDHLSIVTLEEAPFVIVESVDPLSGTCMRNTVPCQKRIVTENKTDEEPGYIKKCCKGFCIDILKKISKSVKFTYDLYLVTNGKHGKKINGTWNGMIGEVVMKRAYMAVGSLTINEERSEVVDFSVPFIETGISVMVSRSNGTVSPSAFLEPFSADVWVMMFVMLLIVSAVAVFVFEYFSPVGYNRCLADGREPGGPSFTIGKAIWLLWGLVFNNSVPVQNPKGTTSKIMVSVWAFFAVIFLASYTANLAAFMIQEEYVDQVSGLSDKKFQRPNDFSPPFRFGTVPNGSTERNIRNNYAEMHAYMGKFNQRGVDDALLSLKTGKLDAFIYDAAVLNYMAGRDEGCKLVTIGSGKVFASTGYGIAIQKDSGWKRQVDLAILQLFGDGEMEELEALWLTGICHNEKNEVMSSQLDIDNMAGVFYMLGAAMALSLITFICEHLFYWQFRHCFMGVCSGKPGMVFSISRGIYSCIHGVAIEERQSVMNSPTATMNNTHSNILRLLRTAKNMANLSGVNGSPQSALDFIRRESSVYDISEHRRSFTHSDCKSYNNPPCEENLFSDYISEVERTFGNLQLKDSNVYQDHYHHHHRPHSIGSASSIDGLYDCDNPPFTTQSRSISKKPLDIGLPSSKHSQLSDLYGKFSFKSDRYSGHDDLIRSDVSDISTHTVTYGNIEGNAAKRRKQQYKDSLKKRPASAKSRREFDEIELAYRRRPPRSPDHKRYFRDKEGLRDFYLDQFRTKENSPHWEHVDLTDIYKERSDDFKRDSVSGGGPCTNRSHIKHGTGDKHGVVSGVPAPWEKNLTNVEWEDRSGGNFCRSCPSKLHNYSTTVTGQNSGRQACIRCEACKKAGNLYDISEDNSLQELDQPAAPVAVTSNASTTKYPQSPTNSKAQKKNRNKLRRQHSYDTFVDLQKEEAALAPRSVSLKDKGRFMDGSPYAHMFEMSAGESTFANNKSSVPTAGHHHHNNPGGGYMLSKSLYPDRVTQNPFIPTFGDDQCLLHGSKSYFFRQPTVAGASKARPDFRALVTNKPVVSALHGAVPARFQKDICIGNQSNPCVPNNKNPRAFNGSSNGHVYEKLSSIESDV
Assay: Positive allosteric modulation of recombinant human GluN1/GluN2B receptor stably expressed in HEK293 cells assessed as increase in glycine/L-glutamate-induced channel current at -70 mV holding potential by whole cell patch clamp method
measured-attribute: EC50 (nM)
# output: bare number, implied unit nM

{"columns": ["smiles-repr", "target-entity", "assay-result"],
 "data": [
  ["C#C[C@@](C)(O)CC[C@@H](C)[C@H]1CC[C@H]2[C@@H]3CC=C4C[C@@](C)(O)CC[C@]4(C)[C@H]3CC[C@]12C", "Glutamate NMDA receptor; GRIN1/GRIN2B (Homo sapiens, UniProt Q05586+Q13224)", 1100],
  ["CCCC[C@@](C)(O)CC[C@@H](C)[C@H]1CC[C@H]2[C@@H]3CC=C4C[C@@](C)(O)CC[C@]4(C)[C@H]3CC[C@]12C", "Glutamate NMDA receptor; GRIN1/GRIN2B (Homo sapiens, UniProt Q05586+Q13224)", 190],
  ["C[C@H](CC[C@](C)(O)C(F)(F)F)[C@H]1CC[C@H]2[C@@H]3CC=C4C[C@@](C)(O)CC[C@@H]4[C@H]3CC[C@]12C", "Glutamate NMDA receptor; GRIN1/GRIN2B (Homo sapiens, UniProt Q05586+Q13224)", 250],
  ["C[C@H](CC[C@](C)(O)C(F)(F)F)[C@H]1CC[C@H]2[C@@H]3CC[C@H]4C[C@@](C)(O)CC[C@]4(C)[C@H]3CC[C@]12C", "Glutamate NMDA receptor; GRIN1/GRIN2B (Homo sapiens, UniProt Q05586+Q13224)", 110]
]}

Attention now turns to another entry.
Please look up its EC50: CCCC[C@](C)(O)CC[C@@H](C)[C@H]1CC[C@H]2[C@@H]3CC=C4C[C@@](C)(O)CC[C@]4(C)[C@H]3CC[C@]12C 450
